Tested on: biotinyl-Trp-oxazolone
measurementProtocol: self-aminoacylation, catalytic enhancement (BWO) (fold over background); higher = more active; k-Seq, kA / k0A0; sequences stand for … in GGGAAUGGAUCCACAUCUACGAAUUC…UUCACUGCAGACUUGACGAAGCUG
Variants at the floor of the assay were thinned out.
Entries are sorted into classes by self-aminoacylation as follows: band A = under 0.7, band B = from 0.7 up to 2, band C = 2 and over

macromoleculeSequence: AUUCACCUGGGUAAUCGGGUG [Fam2.2 aminoacylation ribozyme variant]
group: band C

macromoleculeSequence: CUAUUUCAAACAAUUGGUCUG [Fam1A.1 aminoacylation ribozyme variant]
group: band B

macromoleculeSequence: CUUACCCUGGUCAUCGAGUGG [Fam2.1 aminoacylation ribozyme variant]
group: band C

macromoleculeSequence: CCACAAUUCAAGCAAUGGGUC [Fam1B.1 aminoacylation ribozyme variant]
group: band B

macromoleculeSequence: CUACACUUCAAGCUAUCGGUC [Fam1B.1 aminoacylation ribozyme variant]
group: band A

macromoleculeSequence: AUUACCCUGGUCAUCGAGAGU [Fam2.1 aminoacylation ribozyme variant]
group: band A

macromoleculeSequence: UAGUUUGCUUAUAGUCGCAAG [Fam3.1 aminoacylation ribozyme variant]
group: band B

macromoleculeSequence: AAGUUUUCUAUUAGUCGCAAG [Fam3.1 aminoacylation ribozyme variant]
group: band C

Exam item: Just checking, what class would you give CCACAAUUGAAGCAAUCGGUC [Fam1B.1 aminoacylation ribozyme variant] here?
Marked response: band B

----------
Tested on: biotinyl-Met-oxazolone
measurementProtocol: self-aminoacylation, catalytic enhancement (BMO) (fold over background); higher = more active; k-Seq, kA / k0A0; sequences stand for … in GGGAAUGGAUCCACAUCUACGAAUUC…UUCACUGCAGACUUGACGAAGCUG
Fewer inactive variants are shown than the library holds.
Kindly state self-aminoacylation for each of the entries shown.
Give bare numbers.

macromoleculeSequence: AUUCACAUAGUUCAUCGGGUG [Fam2.2 aminoacylation ribozyme variant]
reportedMetric: self-aminoacylation
resultNumber: 2.76

Please give self-aminoacylation for each item listed below.
1. CUACUUCAAGCAAUCAGUCUG [Fam1A.1 aminoacylation ribozyme variant]
2. AUUAUCCUGGUCAUCGUGUGA [Fam2.1 aminoacylation ribozyme variant]
3. AUUACCCAGGUCAUCGAUUGA [Fam2.1 aminoacylation ribozyme variant]
4. CUACUGCAAACAAUCGUUCUG [Fam1A.1 aminoacylation ribozyme variant]
5. CCACACUUCAAUCAAUCGGUU [Fam1B.1 aminoacylation ribozyme variant]
6. AUUAACCAAGGUCAUCGGGUG [Fam2.2 aminoacylation ribozyme variant]
7. CCACAUCUCAAGCAAUCGGUC [Fam1B.1 aminoacylation ribozyme variant]

Marked response:
[0.615, 3.54, 0.825, 0.818, 1.16, 7.25, 0.985]

Please give self-aminoacylation for each item listed below.
1. AUACCCCUGGUCAUCGAGUGA [Fam2.1 aminoacylation ribozyme variant]
2. ACUCACCUACGUCAUCGGGUG [Fam2.2 aminoacylation ribozyme variant]
3. CUACCGCAAACAAUCGGUCUG [Fam1A.1 aminoacylation ribozyme variant]
4. AUUACCAAGGUCAUCGAGUGA [Fam2.1 aminoacylation ribozyme variant]
5. AUUCACCUAGGUUAUAGGGUG [Fam2.2 aminoacylation ribozyme variant]
6. CCACACUUUAAGGAAUCGGUC [Fam1B.1 aminoacylation ribozyme variant]
7. CUUACCCUGGUCAUCAAGUGA [Fam2.1 aminoacylation ribozyme variant]
8. CUACUUCGAACAUUCGGUCUG [Fam1A.1 aminoacylation ribozyme variant]

Marked response:
[6.17, 6.25, 0.981, 7.64, 3.65, 0.717, 2.58, 1.05]

Please give self-aminoacylation for each item listed below.
1. CUACUUCAAAUACUCGGUCUG [Fam1A.1 aminoacylation ribozyme variant]
2. AUUCACCAAGGUCAUCGAGUG [Fam2.2 aminoacylation ribozyme variant]

Marked response:
0.972
4.1
